test system: Botryosphaeri; experiment: In vitro mycelial/spore growth on potato-sucrose-agar, percent disease control (BD); type: cell-based; conditions: 200 ppm, read-out: % controlled, BD
inhibition of growth at 200 ppm values by entry
Form entry: value (%) — number only.

Which inhibition of growth at 200 ppm is reported for this compound? COc1ccc([Si]2(Cn3cncn3)CCCCC2)cc1 100

Endpoint output: inhibition of growth at 200 ppm of Clc1ccc([Si]2(Cn3cncn3)CCCC2)cc1 . Value? 99

Need inhibition of growth at 200 ppm, item CC(n1cncn1)[Si]1(c2ccc(Cl)cc2Cl)CCCC1 (stereo not drawn) 100

Others:
Fill in: inhibition of growth at 200 ppm of CC(n1cncn1)[Si]1(c2ccc(C(F)(F)F)cc2)CCCC1 (stereo not drawn) is ___ 100

Item under review: CC(n1cncn1)[Si]1(c2ccc(F)cc2F)CCCC1 (stereo not drawn) . Reported inhibition of growth at 200 ppm? 100

Recorded inhibition of growth at 200 ppm for CC(n1cncn1)[Si]1(c2ccc(-c3ccccc3)cc2)CCCC1 (stereo not drawn) , please? 100
